target: human recombinant serotonin (5-Hydroxytryptamine) 5-HT2A receptor (Homo sapiens); construct: expressed in transfected cells; host or cells: Chinese hamster ovary (CHO-K1) cells; assay: Serotonin 5-HT2A radioligand binding ([3H]Ketanserin); settings: read-out: Inhibition of ligand binding, Serotonin 5-HT2A (percent inhibition of specific binding), compound at 0.1 μM
Sequence (P28223 whole entry): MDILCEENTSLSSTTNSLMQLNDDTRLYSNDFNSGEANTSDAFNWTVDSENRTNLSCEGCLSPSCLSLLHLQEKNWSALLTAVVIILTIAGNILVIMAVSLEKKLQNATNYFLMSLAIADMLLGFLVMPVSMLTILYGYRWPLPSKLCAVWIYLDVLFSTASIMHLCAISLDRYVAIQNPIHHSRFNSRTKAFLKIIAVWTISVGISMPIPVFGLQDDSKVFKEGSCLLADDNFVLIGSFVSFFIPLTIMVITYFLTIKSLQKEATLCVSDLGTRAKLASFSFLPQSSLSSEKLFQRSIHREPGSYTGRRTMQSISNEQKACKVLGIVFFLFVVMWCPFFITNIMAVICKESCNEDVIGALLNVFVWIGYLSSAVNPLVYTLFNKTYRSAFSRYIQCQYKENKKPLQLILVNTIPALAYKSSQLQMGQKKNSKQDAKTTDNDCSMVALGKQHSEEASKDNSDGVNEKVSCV
Catalogue of compounds with associated inhibition at 0.1 µM
outcome measure: inhibition at 0.1 µM (%)

• CCC(O)(Cn1c2c(c3cc(C)ccc31)CN(C)CC2)c1ccncc1 (stereo not drawn) = 36
• CN1CCc2c(c3cc(Cl)ccc3n2/C=C(\c2ccc(F)cc2)C2CC2)C1 = 98
• C/C(=C\n1c2c(c3ccc(C(F)(F)F)cc31)CN(C)CC2)c1ccc(C)nc1 = 36
• CN1CCc2c(c3cc(Cl)ccc3n2CC(C)(O)c2cnccn2)C1 (stereo not drawn) = 40
• C/C(=C\n1c2c(c3cc(F)ccc31)CN(C)CC2)c1ccncc1 = 98
• C/C(=C\n1c2c(c3cc(Cl)ccc31)CN(C)C(C)C2)c1ccc(F)cc1 (stereo not drawn) = 99
• CC/C(=C/n1c2c(c3cc(C)ccc31)CN(C)CC2)c1ccncc1 = 103
• C/C(=C\n1c2c(c3ccccc31)CN(C)CC2)c1ccc(C)nc1 = 65
• COc1ccc([C@](C)(O)Cn2c3c(c4cc(C)ccc42)CN(C)CC3)cc1 = 98
• Cc1ccc2c(c1)c1c(n2/C=C(\c2ccncc2)C(C)C)CCN(C)C1 = 99
• C/C(=C\n1c2c(c3ccc(Cl)cc31)CN(C)CC2)c1ccncc1 = 100
• CC(=Cn1c2c(c3cc(Cl)ccc31)CN(C)CC2)c1ccc(F)cc1F (stereo in doubt) = 96
• C=C(Cn1c2c(c3cc(Cl)ccc31)CN(C)CC2)c1ccc(F)cc1 = 99
• COc1ccc(C(C)(O)Cn2c3c(c4cc(C)ccc42)CN(C)CC3)cc1 (stereo not drawn) = 96
• C/C(=C\n1c2c(c3cc(Cl)c(Cl)cc31)CN(C)CC2)c1ccc(F)cc1 = 108
• C/C(=C\n1c2c(c3cc(C)ccc31)CN(C)C(C)C2)c1ccncc1 (stereo not drawn) = 94
• Cc1ccc2c(c1)c1c(n2CC(O)(c2ccc(F)cc2)C2CCCCC2)CCN(C)C1 (stereo not drawn) = 60
• C/C(=C\n1c2c(c3cc(C)ccc31)CN(C)CC2)c1ccccn1 = 88

====

molecular target: human recombinant adrenergic α2A receptor (Homo sapiens, UniProt P08913); construct: expressed in transfected cells; host or cells: insect Sf9 cells; experiment: Adrenergic α2A radioligand binding ([3H]MK-912); conditions: percent inhibition of specific binding; compound at 1 μM; read-out: Inhibition of ligand binding, Adrenergic α2A
Sequence (P08913 whole entry): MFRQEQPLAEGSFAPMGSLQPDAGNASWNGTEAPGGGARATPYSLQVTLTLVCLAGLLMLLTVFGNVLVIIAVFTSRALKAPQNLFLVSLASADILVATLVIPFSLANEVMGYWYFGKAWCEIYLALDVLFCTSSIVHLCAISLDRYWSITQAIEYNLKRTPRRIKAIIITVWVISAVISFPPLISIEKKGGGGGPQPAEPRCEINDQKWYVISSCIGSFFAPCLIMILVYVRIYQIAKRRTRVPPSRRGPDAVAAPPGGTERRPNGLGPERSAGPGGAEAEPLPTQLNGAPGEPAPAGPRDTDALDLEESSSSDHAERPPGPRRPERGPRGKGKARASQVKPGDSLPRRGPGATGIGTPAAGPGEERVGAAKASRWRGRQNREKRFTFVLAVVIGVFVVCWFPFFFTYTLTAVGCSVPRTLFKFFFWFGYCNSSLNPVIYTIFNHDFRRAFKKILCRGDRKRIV
outcome measure: inhibition at 1 µM (%)

• Cc1ccc2c(c1)c1c(n2CC(O)(c2ccccc2)c2ccc(F)cc2)CCN(C)C1 (stereo not drawn) = 94
• CN1CCc2c(c3cc(Cl)ccc3n2CC(C)(O)c2cccnc2)C1 (stereo not drawn) = 76
• Cc1ccc2c(c1)c1c(n2CC(O)c2ccc(F)cc2)CCN(C)C1 (stereo not drawn) = 98
• C/C(=C\n1c2c(c3cc(C)ccc31)CN(C)CC2)c1ccncc1 = 65
• CN1CCc2c(c3cc(Cl)ccc3n2/C=C(/c2ccc(F)cc2)C2CCC2)C1 = 96
• C/C=C/C(=C\n1c2c(c3cc(Cl)ccc31)CN(C)CC2)c1ccc(F)cc1 = 99
• COc1ccc(C(C)(O)Cn2c3c(c4cc(Cl)ccc42)CN(C)CC3)cc1 (stereo not drawn) = 70
• CN1CCc2c(c3cc(Cl)ccc3n2C/C=C/c2ccncc2)C1 = 60
• CCOC(=O)/C=C(/Cn1c2c(c3cc(C)ccc31)CN(C)CC2)c1ccccc1 = 96
• C/C(=C\n1c2c(c3cc(Cl)ccc31)CN(C)CC2)c1ccc(C)nc1 = 97
• Cc1ccc(C(C)(O)Cn2c3c(c4cc(Cl)ccc42)CN(C)CC3)cn1 (stereo not drawn) = 81
• COc1ccc(/C(C)=C/n2c3c(c4cc(Cl)ccc42)CN(C)CC3)cc1 = 89
• CCCC/C(=C\n1c2c(c3cc(Cl)ccc31)CN(C)CC2)c1ccc(F)cc1 = 99
• CNC(=O)C/C(=C\n1c2c(c3cc(C)ccc31)CN(C)CC2)c1ccc(F)cc1 = 86
• CN1CCc2c(c3cc(Cl)ccc3n2C/C(=C/CCO)c2ccc(F)cc2)C1 = 97
• Cc1ccc2c(c1)c1c(n2CC(O)c2ccc(C)nc2)CCN(C)C1 (stereo not drawn) = 83
• Cc1ccc2c(c1)c1c(n2/C=C(\CC(=O)O)c2ccc(F)cc2)CCN(C)C1 = 30
• CCN1CCc2c(c3ccccc3n2CC(O)c2ccc(C)cc2)C1 (racemic) = 65
